TGT: IKZF2 (Homo sapiens, UniProt Q96SW2+Q9UKS7)
Construct: endogenous in cells; host or cells: MOLT4 (CRISPR/Cas9 HiBit knock-in at the IKZF2 locus)
Sequence (Q9UKS7 whole entry): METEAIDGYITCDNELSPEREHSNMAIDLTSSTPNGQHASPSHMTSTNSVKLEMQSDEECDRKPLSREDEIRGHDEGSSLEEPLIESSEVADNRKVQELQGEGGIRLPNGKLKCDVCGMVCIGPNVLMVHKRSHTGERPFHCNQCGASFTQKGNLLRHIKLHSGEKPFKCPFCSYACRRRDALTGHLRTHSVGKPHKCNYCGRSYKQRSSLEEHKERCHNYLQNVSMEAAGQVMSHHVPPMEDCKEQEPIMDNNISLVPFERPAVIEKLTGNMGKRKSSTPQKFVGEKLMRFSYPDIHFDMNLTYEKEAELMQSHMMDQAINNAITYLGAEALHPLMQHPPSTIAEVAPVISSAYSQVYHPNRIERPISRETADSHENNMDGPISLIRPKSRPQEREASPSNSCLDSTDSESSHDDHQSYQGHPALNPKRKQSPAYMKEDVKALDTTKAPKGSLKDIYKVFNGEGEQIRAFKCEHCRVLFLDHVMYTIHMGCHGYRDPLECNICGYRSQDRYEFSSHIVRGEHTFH
Sequence (Q96SW2 whole entry): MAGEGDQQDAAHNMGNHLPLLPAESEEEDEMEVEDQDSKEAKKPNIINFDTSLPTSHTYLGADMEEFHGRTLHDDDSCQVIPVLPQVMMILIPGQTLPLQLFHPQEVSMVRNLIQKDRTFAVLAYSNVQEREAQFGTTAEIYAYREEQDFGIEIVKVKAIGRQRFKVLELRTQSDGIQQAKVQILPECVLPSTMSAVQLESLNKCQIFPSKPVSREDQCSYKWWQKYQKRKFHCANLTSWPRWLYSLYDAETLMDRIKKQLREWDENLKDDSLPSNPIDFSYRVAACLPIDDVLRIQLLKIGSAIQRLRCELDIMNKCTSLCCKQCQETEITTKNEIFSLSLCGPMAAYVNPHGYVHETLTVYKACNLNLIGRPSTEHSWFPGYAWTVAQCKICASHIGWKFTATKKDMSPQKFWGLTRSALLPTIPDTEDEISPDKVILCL
Sequence (Q16531 whole entry partner): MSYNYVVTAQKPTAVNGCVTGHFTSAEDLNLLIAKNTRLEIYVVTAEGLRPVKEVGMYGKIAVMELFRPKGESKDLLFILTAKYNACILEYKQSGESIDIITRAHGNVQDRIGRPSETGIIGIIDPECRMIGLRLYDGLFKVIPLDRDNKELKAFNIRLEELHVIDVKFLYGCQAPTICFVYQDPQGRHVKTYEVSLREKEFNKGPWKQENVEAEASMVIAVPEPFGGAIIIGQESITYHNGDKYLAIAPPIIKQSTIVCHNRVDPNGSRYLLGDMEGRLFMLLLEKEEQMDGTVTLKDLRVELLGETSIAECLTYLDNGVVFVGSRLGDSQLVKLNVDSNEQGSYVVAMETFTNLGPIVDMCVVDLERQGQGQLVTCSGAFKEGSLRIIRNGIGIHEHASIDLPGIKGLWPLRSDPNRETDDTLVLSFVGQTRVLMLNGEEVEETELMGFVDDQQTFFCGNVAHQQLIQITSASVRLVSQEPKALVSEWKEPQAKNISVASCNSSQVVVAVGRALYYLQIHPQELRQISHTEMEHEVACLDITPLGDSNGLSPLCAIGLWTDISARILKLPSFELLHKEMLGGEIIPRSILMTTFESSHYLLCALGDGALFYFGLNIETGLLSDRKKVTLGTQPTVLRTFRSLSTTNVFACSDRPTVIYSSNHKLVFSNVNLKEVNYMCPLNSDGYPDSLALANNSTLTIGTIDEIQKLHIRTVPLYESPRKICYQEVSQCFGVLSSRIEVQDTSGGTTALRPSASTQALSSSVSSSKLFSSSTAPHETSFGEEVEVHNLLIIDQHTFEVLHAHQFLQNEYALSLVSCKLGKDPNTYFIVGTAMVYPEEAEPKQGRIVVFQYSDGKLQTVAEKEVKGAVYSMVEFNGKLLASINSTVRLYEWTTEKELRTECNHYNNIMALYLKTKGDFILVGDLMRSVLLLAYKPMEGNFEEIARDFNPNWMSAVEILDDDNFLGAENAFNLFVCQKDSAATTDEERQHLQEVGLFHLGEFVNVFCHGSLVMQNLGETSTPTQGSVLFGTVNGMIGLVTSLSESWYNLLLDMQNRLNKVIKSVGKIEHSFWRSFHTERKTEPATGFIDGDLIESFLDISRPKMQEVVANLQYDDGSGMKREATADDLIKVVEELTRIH
ASSAY PROCEDURE: MOLT4 IKZF2 HiBit assay
Assay type: cell-based
STATED CONDITIONS: MOLT-4; MOLT4 IKZF2 HiBit cells, 30 μM, 6 hr (Dmax); read-out: % reduction of IKZF2 @ 30 μM (6 hr)
Description: MOLT4 IKZF2 HiBit Assay Protocol: This protocol used MOLT4 cells that were engineered using CRISPR/Cas9-mediated genomic insertion of HiBit, tagged to the N terminus of the IKZF2 coding sequence. Day 1. A 10-point dose response was created starting from 30 μM down to InM using a Tecan D300e. […] Finally, luminescence signal was read using a BMG Labtech PHERAstar FSX. […] The extent of degradation (range of luminescence) from the highest to lowest concentration points was calculated to determine Dmax.
Where a name gives a salt, the structure may show the parent alone.
// values below are reported Dmax at 30 µM
Return type: number; implicit unit %.

Some solved cases for reference:
Lookup: State the recorded Dmax at 30 µM for this entry: CC(c1ccc(C(F)(F)F)cc1)N1CCC(O)(c2ccc3c(c2)C(=O)N(C2CCC(=O)NC2=O)C3=O)CC1 (stereo not shown) [Compound 143, HCl salt]
Found: 84

Lookup: State the recorded Dmax at 30 µM for this entry: Cn1ccc2cc(CN3CCC(O)(c4ccc5c(c4)C(=O)N(C4CCC(=O)NC4=O)C5=O)CC3)ccc21 (stereo not shown) [Compound 141, HCl salt]
Found: 86

Lookup: State the recorded Dmax at 30 µM for this entry: O=C1CCC(N2C(=O)c3ccc(C4(O)CCN(Cc5cccnc5)CC4)cc3C2=O)C(=O)N1 (stereo not shown) [Compound 69, formic acid salt]
Found: 72

***
Lookup: State the recorded Dmax at 30 µM for this entry: O=C1CCC(N2C(=O)c3ccc(C4(O)CCN(Cc5ccn(-c6ccccc6)n5)CC4)cc3C2=O)C(=O)N1 (stereo not shown) [Compound 94, HCl salt]
Found: 79

Lookup: State the recorded Dmax at 30 µM for this entry: CCCN1CCC(O)(c2ccc3c(c2)C(=O)N(C2CCC(=O)NC2=O)C3=O)CC1 (stereo not shown) [Compound 146, HCl salt]
Found: 69

Lookup: State the recorded Dmax at 30 µM for this entry: N#Cc1ccc(CN2CCC(O)(c3ccc4c(c3)C(=O)N(C3CCC(=O)NC3=O)C4=O)CC2)cc1 (stereo not shown)
Found: 81

Lookup: State the recorded Dmax at 30 µM for this entry: COC[C@H]1CC[C@H](CN2CCC(c3ccc4c(c3)C(=O)N(C3CCC(=O)NC3=O)C4=O)CC2)CC1 (stereo partly shown)
Found: 25
